Test: Drug level in ICR mouse brain at 10 mg/kg, ip after 1 hr
Assay type: ADME, organism-based
Conditions: read-out: Drug uptake
readout-label: concentration at 1 h

Item under review: COc1ccc(-c2nc(-c3ccc(C[C@H](N)C(=O)O)cc3)no2)cc1-c1ccc(O)cc1.Cl . Reported concentration at 1 h?
< 31.3 ng/g

====

Target: hERG (KCNH2) (Homo sapiens)
Sequence (Q12809 whole entry): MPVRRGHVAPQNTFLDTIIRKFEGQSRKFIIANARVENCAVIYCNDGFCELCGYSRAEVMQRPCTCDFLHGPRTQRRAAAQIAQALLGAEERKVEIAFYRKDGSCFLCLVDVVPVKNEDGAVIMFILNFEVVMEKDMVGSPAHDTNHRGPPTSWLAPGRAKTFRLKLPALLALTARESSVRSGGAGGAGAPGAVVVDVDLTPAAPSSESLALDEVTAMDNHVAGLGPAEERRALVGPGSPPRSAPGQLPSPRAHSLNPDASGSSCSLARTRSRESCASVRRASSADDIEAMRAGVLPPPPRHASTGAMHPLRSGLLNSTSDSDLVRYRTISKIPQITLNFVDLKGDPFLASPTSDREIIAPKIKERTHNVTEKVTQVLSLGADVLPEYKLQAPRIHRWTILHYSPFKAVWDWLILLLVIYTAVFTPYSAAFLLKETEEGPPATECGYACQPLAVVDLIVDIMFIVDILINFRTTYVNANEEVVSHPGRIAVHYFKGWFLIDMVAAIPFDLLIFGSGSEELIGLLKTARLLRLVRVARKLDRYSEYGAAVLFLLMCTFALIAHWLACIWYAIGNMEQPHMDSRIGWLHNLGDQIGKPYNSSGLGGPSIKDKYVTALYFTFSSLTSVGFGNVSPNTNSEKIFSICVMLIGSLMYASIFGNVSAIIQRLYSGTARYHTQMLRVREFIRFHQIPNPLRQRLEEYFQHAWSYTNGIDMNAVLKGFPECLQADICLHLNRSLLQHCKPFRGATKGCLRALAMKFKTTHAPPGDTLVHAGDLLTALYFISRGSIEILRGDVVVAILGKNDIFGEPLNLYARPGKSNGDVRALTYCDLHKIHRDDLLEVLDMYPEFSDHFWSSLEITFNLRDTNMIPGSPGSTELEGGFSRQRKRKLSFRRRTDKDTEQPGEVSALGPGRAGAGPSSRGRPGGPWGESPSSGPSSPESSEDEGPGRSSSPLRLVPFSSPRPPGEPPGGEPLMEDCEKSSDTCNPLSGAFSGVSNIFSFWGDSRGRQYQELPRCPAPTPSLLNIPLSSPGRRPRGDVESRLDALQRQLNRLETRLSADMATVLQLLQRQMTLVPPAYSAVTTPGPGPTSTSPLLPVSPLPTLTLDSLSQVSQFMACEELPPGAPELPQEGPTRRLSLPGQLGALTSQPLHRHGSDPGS
Experiment: Inhibition of human ERG at 10 uM relative to control
readout-label: inhibition at 10 µM (%)
Your answer is read as %, so omit the unit and give the number.

For the molecule COc1ccc(-c2nc(-c3ccc(C[C@H](N)C(=O)O)cc3)no2)cc1-c1ccc(O)cc1.Cl , what inhibition at 10 µM is on record?
24.3

====

Overview of recorded inhibition for various compounds
Target: Tryptophan 5-hydroxylase 1 (Homo sapiens)
Assay: Inhibition of Tryptophan hydroxylase 1 (unknown origin) at 1 uM incubated for 4 hrs by fluorescence based assay
Give the number; % is assumed, so skip it.

>>> print(df.to_string())
                        structure_as_smiles  readout_label  unit_text  value
0  COc1ccc(-c2nc(-c3ccc(C[C@H](N)C(=O)O)cc3)no2)cc1-c1ccc(O)cc1.Cl     inhibition          %    100
1  COc1ccc(-c2nc(-c3ccc(C[C@H](N)C(=O)O)cc3)no2)cc1-c1cccc(O)c1     inhibition          %   96.7
2  COc1ccc(-c2nc(-c3ccc(C[C@H](N)C(=O)O)cc3)no2)cc1-c1ccccc1O     inhibition          %     97
3  COc1ccc(-c2cnc(-c3ccc(C[C@H](N)C(=O)O)cc3)s2)cc1OC     inhibition          %     15

Turning to the following compound.
Entry COc1ccc(-c2nc(-c3ccc(C[C@H](N)C(=O)O)cc3)no2)cc1-c1ccccc1 : reported inhibition = ?
97

====

Molecular target: CYP1A2 (Homo sapiens, UniProt P05177)
Sequence (P05177 whole entry): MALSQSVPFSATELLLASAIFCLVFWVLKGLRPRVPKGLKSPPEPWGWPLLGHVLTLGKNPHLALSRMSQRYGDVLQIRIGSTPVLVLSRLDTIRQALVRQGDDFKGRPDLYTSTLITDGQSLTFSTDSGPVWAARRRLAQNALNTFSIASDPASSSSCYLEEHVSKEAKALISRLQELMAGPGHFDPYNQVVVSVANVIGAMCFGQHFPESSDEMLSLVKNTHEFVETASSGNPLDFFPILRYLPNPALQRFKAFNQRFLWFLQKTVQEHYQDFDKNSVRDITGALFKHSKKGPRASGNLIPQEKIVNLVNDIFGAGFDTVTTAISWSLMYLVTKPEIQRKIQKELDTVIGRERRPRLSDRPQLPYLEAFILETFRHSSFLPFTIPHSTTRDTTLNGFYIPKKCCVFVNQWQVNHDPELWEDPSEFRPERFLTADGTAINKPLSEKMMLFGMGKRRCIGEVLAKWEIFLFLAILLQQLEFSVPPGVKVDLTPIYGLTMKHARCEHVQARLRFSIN
Assay: Inhibition of CYP1A2 (unknown origin) at 10 uM relative to control
Type: ADME
readout-label: inhibition at 10 µM (%)
Reply with just the number (in %).

Entry under review: COc1ccc(-c2nc(-c3ccc(C[C@H](N)C(=O)O)cc3)no2)cc1-c1ccc(O)cc1.Cl . Reported inhibition at 10 µM?
3.2

====

Experiment: Stability in rat liver microsomes assessed as parent compound remaining level after 30 mins
Format: ADME, Microsome
Conditions: read-out: Stabilty
readout-label: remaining at 0.5 h (%)
Kindly answer with a numeric value in %, unit omitted.

Endpoint output: remaining at 0.5 h of COc1ccc(-c2nc(-c3ccc(C[C@H](N)C(=O)O)cc3)no2)cc1-c1ccc(O)cc1.Cl . Value?
85

====

Assay: Stability in human liver microsomes assessed as parent compound remaining level after 30 mins
Type: ADME, Microsome
Conditions: read-out: Stabilty
readout-label: remaining at 0.5 h
Dear colleague, please send the value followed by its unit.

Can you look up the measured remaining at 0.5 h of COc1ccc(-c2nc(-c3ccc(C[C@H](N)C(=O)O)cc3)no2)cc1-c1ccc(O)cc1.Cl for me?
92%

====

Target: UniProt P17752
Sequence (P17752 whole entry): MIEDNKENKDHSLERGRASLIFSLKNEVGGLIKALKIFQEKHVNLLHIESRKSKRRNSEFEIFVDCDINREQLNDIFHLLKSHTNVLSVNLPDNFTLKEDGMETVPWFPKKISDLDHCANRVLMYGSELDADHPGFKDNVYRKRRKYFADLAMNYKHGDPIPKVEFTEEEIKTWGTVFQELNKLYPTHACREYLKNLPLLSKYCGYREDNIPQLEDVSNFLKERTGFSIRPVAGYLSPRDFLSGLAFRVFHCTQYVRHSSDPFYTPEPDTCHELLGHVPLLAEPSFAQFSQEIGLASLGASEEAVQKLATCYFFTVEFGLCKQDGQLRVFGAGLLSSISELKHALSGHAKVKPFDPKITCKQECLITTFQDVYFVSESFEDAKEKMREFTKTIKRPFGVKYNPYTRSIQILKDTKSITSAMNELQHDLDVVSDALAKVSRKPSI
Test: Inhibition of Tryptophan hydroxylase 1 (unknown origin) at 10 uM incubated for 4 hrs by fluorescence based assay
Output true for inhibition not less than 60%; output false otherwise.

Look over these answered cases.
>>> df
                        structure_as_smiles  label_value
0  COc1ccc(-c2nc(-c3ccc(C[C@H](N)C(=O)O)cc3)ns2)cc1        false
1  COc1ccc(-c2nc(-c3ccc(C[C@H](N)C(=O)O)cc3)ns2)cc1OC        false
2  COc1ccc(-c2cnc(-c3ccc(C[C@H](N)C(=O)O)cc3)[nH]2)cc1         true
3  COc1ccc(-c2cnc(-c3ccc(C[C@H](N)C(=O)O)cc3)s2)cc1OC         true
4  COc1ccc(-c2nc(-c3ccc(C[C@H](N)C(=O)O)cc3)no2)cc1         true

Decide: is the reported value of inhibition for COc1ccc(-c2nnc(-c3ccc(C[C@H](N)C(=O)O)cc3)o2)cc1 equal to or greater than 60%?
false

====

Molecular target: CYP2D6 (Homo sapiens, UniProt P10635)
Sequence (P10635 whole entry): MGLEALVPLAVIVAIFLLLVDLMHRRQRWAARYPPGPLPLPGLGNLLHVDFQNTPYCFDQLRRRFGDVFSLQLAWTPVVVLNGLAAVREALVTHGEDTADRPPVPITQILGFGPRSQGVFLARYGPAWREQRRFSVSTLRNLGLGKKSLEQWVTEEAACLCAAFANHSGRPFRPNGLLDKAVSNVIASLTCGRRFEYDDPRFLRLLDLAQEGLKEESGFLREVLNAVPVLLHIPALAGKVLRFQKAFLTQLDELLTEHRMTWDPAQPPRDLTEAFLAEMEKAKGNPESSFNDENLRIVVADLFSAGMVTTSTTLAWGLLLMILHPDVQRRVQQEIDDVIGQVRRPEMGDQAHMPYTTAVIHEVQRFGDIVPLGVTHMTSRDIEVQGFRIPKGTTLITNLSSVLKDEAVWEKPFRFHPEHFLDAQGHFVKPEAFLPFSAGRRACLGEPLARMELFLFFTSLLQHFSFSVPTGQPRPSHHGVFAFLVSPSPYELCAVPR
Assay: Inhibition of CYP2D6 (unknown origin) at 10 uM relative to control
Type: ADME
readout-label: inhibition at 10 µM

What measured inhibition at 10 µM is associated with COc1ccc(-c2nc(-c3ccc(C[C@H](N)C(=O)O)cc3)no2)cc1-c1ccc(O)cc1.Cl on CYP2D6 (Homo sapiens, UniProt P10635)?
< 1%
